- system: p38a/PRAK (Homo sapiens (Human), UniProt Q16539)
- Sequence (Q16539 whole entry): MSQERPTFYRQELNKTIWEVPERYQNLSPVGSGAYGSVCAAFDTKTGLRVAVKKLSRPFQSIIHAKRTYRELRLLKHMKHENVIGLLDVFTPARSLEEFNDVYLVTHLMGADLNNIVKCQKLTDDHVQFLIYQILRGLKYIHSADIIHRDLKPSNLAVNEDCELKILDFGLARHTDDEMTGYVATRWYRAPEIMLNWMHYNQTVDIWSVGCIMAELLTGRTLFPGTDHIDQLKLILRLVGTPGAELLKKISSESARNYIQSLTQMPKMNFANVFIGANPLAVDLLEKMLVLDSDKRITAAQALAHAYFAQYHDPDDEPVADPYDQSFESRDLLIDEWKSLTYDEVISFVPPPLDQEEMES
- test-details: p38a/PRAK biochemical assay: activation of PRAK by p38, FITC-HSP27 peptide phosphorylation (IMAP FP)
- recorded-conditions: 10-point 1:3 dilution, top dose 300 μM; 60 pM active p38a, 1 nM inactive PRAK, 10 μM ATP, 2 h incubation; read-out: p38a/PRAK Enzyme pIC50 (converted)
result-type: IC50 (µM)
Quick note: give the figure in µM, leave out the unit.

Some solved cases for reference:
molecule	IC50 (µM)
Cc1cnc(-n2nc(C(C)(C)O)cc2C2CC2)cc1-n1c(C)cc(OCc2ncc(F)cc2F)c(Cl)c1=O (single isomer, unassigned) [Example 20A]	5.01
Cc1nn(-c2ccnc(C(C)(C)O)n2)cc1-n1c(C)cc(OCc2ncc(F)cc2F)c(Cl)c1=O	25.1

Task: What value of measured IC50 is listed for [2H]C([2H])(Oc1cc(C)n(-c2c(C)cnc(-c3ccnc(C(C)(C)O)c3F)c2F)c(=O)c1Cl)c1ncc(F)cc1F (single isomer, unassigned) [Example 65A] ?
Output: 0.2

Task: What value of measured IC50 is listed for Cc1cnc(-c2cc(C3CC3)nc(C(C)(C)O)n2)cc1-n1c(C)cc(OCc2ncc(F)cc2F)c(Cl)c1=O (atropisomer, axis not shown) ?
Output: 5.01
